This collection of values is drawn from ChEMBL document CHEMBL5143607.

Target: UniProt:Q12809
Sequence (Q12809 whole entry): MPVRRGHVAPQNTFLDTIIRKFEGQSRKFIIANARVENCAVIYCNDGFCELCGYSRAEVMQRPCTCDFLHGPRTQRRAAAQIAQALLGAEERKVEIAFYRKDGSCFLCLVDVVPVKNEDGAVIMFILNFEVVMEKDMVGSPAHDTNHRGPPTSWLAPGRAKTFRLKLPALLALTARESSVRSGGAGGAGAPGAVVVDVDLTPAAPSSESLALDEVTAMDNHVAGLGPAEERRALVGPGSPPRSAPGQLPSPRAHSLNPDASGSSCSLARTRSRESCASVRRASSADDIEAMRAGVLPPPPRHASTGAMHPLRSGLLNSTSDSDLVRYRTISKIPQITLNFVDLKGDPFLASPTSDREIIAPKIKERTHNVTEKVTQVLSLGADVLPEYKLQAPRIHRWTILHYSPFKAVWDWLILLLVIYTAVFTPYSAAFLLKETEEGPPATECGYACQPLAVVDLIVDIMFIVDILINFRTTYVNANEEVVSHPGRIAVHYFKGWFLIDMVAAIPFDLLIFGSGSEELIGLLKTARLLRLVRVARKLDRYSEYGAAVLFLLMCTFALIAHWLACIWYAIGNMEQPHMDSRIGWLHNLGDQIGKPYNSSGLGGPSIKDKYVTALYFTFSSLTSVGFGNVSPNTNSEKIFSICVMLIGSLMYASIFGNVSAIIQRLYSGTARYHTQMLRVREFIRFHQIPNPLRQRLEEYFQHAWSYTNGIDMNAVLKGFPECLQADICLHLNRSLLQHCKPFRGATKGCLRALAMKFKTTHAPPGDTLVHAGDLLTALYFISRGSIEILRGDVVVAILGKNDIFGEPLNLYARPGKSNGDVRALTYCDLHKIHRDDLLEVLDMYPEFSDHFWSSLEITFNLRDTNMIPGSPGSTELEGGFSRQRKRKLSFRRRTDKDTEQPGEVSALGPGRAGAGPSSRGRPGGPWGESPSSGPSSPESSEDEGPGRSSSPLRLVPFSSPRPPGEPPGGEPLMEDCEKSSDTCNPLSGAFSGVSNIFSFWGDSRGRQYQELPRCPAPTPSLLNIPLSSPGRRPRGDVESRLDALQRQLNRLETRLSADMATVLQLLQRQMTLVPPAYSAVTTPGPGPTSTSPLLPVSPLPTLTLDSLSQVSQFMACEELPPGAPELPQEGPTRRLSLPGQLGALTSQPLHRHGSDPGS
Assay: Inhibition of human ERG at 100 uM by Ionworks electrophysiology assay
Format: toxicity
Measured inhibition at 100 µM accompanies every entry in the list below.
Give a bare numeral; the unit % is implied.

Worked examples, 5 compounds total:
# smi, tested-system, measure-unit, inhibition at 100 µM
data = [
    ("COc1ccc2ccc(=O)n(CCN[C@H]3CC[C@H]4[C@H](C3)OC(=O)N4c3ccc4c(n3)NC(=O)CO4)c2c1", "UniProt:Q12809", "%", 85),
    ("COc1ccc2ccc(=O)n(CCCN[C@H]3CC[C@H]4[C@H](C3)OC(=O)N4c3ccc4c(n3)NC(=O)CO4)c2n1", "UniProt:Q12809", "%", 97),
    ("N#Cc1ccc2c(ccc(=O)n2CCN[C@H]2CC[C@H]3[C@H](C2)OC(=O)N3c2ccc3c(n2)NC(=O)CO3)c1", "UniProt:Q12809", "%", 56),
    ("O=C1COc2ccc(N3C(=O)O[C@H]4C[C@@H](NCCn5c(=O)ccc6ccc(C(=O)O)cc65)CC[C@@H]43)nc2N1", "UniProt:Q12809", "%", 33),
    ("COc1cc2c(ccc(=O)n2CCN[C@H]2CC[C@H]3[C@H](C2)OC(=O)N3c2ccc3c(n2)NC(=O)CO3)cn1", "UniProt:Q12809", "%", 83),
]

Test system UniProt:Q12809; read-out inhibition at 100 µM; what value for O=C1COc2ccc(N3C(=O)O[C@H]4C[C@@H](NCCn5c(=O)cnc6ccc(F)cc65)CC[C@@H]43)nc2N1 ?
33
